Test system: Sam68 (KHDRBS1)
Experiment: compounds binding KHDRBS1 protein – biochemical, small-molecule microarray, 635 nm fluorescence, primary screen (AID 1125);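 further: score merges 667 nm channel intensity with signal to noise over triplicate slides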
Conditions: higher = more signal
test.readout: composite z-score

CCOC(=O)C[C@H]1[C@H](OC(=O)Cc2ccc3c(c2)OCO3)[C@@H](NC(=O)Cc2ccc(OC)cc2)c2cc(OCCCO)ccc2N1C(=O)Cc1ccc(OC)cc1    0.323
C=CCC(OC(C)=O)[C@@H]1[C@@H](N(Cc2ccc(-c3ccccc3)cc2)C(=O)c2cccc3ccccc23)c2cc(OCCCO)ccc2N1C(=O)Cc1ccc(OC)cc1 (some centres not stated)    -0.205
[N-]=[N+]=Nc1ccccc1[C@@H]1OC(c2ccc(OCCCO)cc2)=N[C@]1(Cc1ccccc1)C(=O)NCCN1CCOCC1    0.96
O=C1[C@H]2C=C(I)[C@H](C[C@@H]2OCCCCCCO)[C@@]12CO2    -0.747
COc1cc(CO)cc(I)c1O[C@H]1C=C(C(=O)NCCO)C[C@@H](NC2CCCCCC2)[C@@H]1O    1.33
COc1ccc([Si](C)(C)[C@H]2[C@H](CCO)O[C@@]3(C(=O)N(Cc4cccc(N(C=O)c5ccccc5)c4)c4ccccc43)[C@@H]2C)cc1    1.28
Cc1ccc(S[C@]2(C(=O)NC3CC3)CC(=O)N(C(C)C)[C@@H]2c2ccc(CO)cc2I)cc1    0.238
